Attribution: ChEMBL document CHEMBL5032510

GI50 for assorted compounds
Test system: OCI-Ly1
Experimental Protocol: Antiproliferative activity against human OCI-Ly1 cells assessed as inhibition of cell growth incubated for 72 hrs by Celltiter-Glo luminescent assay
Format: functional

{"Smiles Code": "COC(=O)c1ccc2c(=O)[nH]c3c(C(=O)Nc4ccccc4C)sc(=S)n3c2c1", "Target Of Assay": "OCI-Ly1", "GI50 (µM)": 15}
{"Smiles Code": "O=C(NCc1ccccc1Cl)c1sc(=S)n2c1[nH]c(=O)c1cc(Br)ccc12", "Target Of Assay": "OCI-Ly1", "GI50 (µM)": 30}
{"Smiles Code": "CCOc1ccc(OCC)c(NC(=O)c2sc(=S)n3c2[nH]c(=O)c2ccc(Cl)cc23)c1", "Target Of Assay": "OCI-Ly1", "GI50 (µM)": 25.6}
{"Smiles Code": "COc1ccc(OC)c(NC(=O)c2sc(=S)n(-c3ccc(Cl)cc3)c2NC(=O)CCl)c1", "Target Of Assay": "OCI-Ly1", "GI50 (µM)": 13}
{"Smiles Code": "COC(=O)c1ccc2c(=O)[nH]c3c(C(=O)Nc4ccc(F)cc4F)sc(=S)n3c2c1", "Target Of Assay": "OCI-Ly1", "GI50 (µM)": 21.6}
{"Smiles Code": "COc1cccc(CNC(=O)c2sc(=S)n3c2[nH]c(=O)c2cc(Br)ccc23)c1", "Target Of Assay": "OCI-Ly1", "GI50 (µM)": 16.1}
{"Smiles Code": "Cc1ccc2c(c1)c(=O)[nH]c1c(C(=O)Nc3cc(Cl)ccc3C)sc(=S)n12", "Target Of Assay": "OCI-Ly1", "GI50 (µM)": 23}
{"Smiles Code": "COc1ccc(OC)c(NC(=O)c2sc(=S)n(-c3cccc(Br)c3)c2NC(=O)CCl)c1", "Target Of Assay": "OCI-Ly1", "GI50 (µM)": 12.7}
{"Smiles Code": "COc1ccc(OC)c(NC(=O)c2sc(=S)n(-c3cccc(C(F)(F)F)c3)c2NC(=O)CCl)c1", "Target Of Assay": "OCI-Ly1", "GI50 (µM)": 13.3}
